# Test system: Wolbachia pipientis
# assay procedure: Anti-Wolbachia Cell-Based Screen
# Type: functional
# Design: scale not given: in the data most compounds retested in dose-response had high values
# condition info: 5 µM
Out of some 48,000 compounds screened, about 13,000 (27%) showed an effect of 50% or more. The list shows a part of the results.
readout type: Percent Effect (%)
Return type: number; implicit unit %.

CCc1cnc(CN(C(C)=O)C2CCN(CCc3ccccn3)C2)o1 (stereo not drawn) | 119.1

Record COCCN1CCC2(COCCN(Cc3ccc4c(c3)OCO4)C2)C1.O=C(O)C(F)(F)F.O=C(O)C(F)(F)F (stereo not drawn) . Reported Percent Effect: 1.486

Record COCCC(=O)N1CCC(c2ncncc2-c2ccnc(N)c2)C1 (stereo not drawn) . Reported Percent Effect: 107.7

Record COCCN1CCOCC2(CCCN(Cc3cccc(F)c3)C2)C1.O=C(O)C(F)(F)F.O=C(O)C(F)(F)F (stereo not drawn) . Reported Percent Effect: 114.4

Record CCc1cnc(CN(C(C)=O)C2CCN(CCc3ccncc3)C2)o1 (stereo not drawn) . Reported Percent Effect: 111.3

Record CCc1cnc(CN(C(C)=O)C2CCN(CCc3ccccc3)C2)o1 (stereo not drawn) . Reported Percent Effect: 104.1

Record O=c1cc(N2CCCC2)cnn1Cc1noc(C2CCCO2)n1 (stereo not drawn) . Reported Percent Effect: -13.05

###

# Test system: Wolbachia pipientis
# assay procedure: Anti-Wolbachia Cell-Based Screen
# Format: functional
# Design: scale not given: in the data most compounds retested in dose-response had high values
# condition info: 5 µM
Screen size: about 48,000 compounds; about 13,000 (27%) showed an effect of 50% or more. The list shows a part of the results.
readout type: Percent Effect (%)
Return type: number; implicit unit %.

CNC(=O)C(NC(=O)c1nccn2ccnc12)c1ccc(F)c(F)c1 (stereo unspecified) | 7.625

// returns Percent Effect for COc1cc(C(=O)N(C)C(C)Cc2cc(C)ccn2)ccn1 (stereo unspecified) with Wolbachia pipientis; value = -2.709

// returns Percent Effect for Cc1nnc(SCCNC(=O)CC2CCc3ccccc32)s1 (stereo unspecified) with Wolbachia pipientis; value = -7.078

// returns Percent Effect for O=C(NCCOc1ncc(Cl)cc1Cl)c1cccnc1 with Wolbachia pipientis; value = 0.5232

// returns Percent Effect for CC(=O)NC1(C(=O)N2CCCN(c3cccnn3)CC2)CCCCC1 with Wolbachia pipientis; value = 1.939

// returns Percent Effect for Cc1cc(C)c(CNC(=O)NCC(c2ccccc2)N(C)C)c(=O)[nH]1 (stereo unspecified) with Wolbachia pipientis; value = 1.646

###

# System: Wolbachia pipientis
# assay procedure: Anti-Wolbachia Cell-Based Screen
# Type: functional
# Set-up: scale not given: in the data most compounds retested in dose-response had high values
# condition info: 5 µM
The campaign covered roughly 48,000 compounds. About 13,000 (27%) showed an effect of 50% or more. Some of the results follow.
Label scheme for Percent Effect: lower than 10% is Not fulfilled, 10% and above is Fulfilled.

CCOC[C@@]12CCC[C@@H]1CN(C(=O)c1ccc(OC)cc1)C2 | Fulfilled
COC[C@@]12CCC[C@@H]1CN(C(=O)COc1ccccc1OC)C2 | Fulfilled
CSc1ccc(CN(CCO)Cc2nccn2C)cc1 | Not fulfilled
CCOC[C@@]12CCC[C@@H]1CN(C(=O)COc1ccccc1OC)C2 | Fulfilled

Kindly determine if Percent Effect recorded for Cc1cccc(N2CCC(NC(C)c3cccs3)CC2)n1 (stereo unspecified) is above or exactly 10%.
Not fulfilled

Kindly determine if Percent Effect recorded for CCc1nc2c(c(NCc3cc(-c4cccnc4)no3)n1)CCNCC2 is above or exactly 10%.
Fulfilled

Kindly determine if Percent Effect recorded for CN(C)S(=O)(=O)N1CC[C@]2(O)CCN(c3cc(C#N)ccn3)C[C@@H]2C1 is above or exactly 10%.
Not fulfilled

Kindly determine if Percent Effect recorded for COc1ccc(Cl)cc1CCNC(=O)N(C)CC1CCOC1 (stereo unspecified) is above or exactly 10%.
Fulfilled

Kindly determine if Percent Effect recorded for CCCn1cnnc1CNC(=O)CC1C(=O)NCCN1CC(C)(C)C (stereo unspecified) is above or exactly 10%.
Not fulfilled

Kindly determine if Percent Effect recorded for O=C(O)C(F)(F)F.O=C(c1ccc(F)cc1)N1C[C@H]2CCC[C@@]2(COCc2ccncc2)C1 is above or exactly 10%.
Not fulfilled

Kindly determine if Percent Effect recorded for Cn1ncc2c1C(COCC1CC1)CN(C(=O)c1ccoc1)C2 (stereo unspecified) is above or exactly 10%.
Fulfilled

###

# Tested on: Wolbachia pipientis
# assay procedure: Anti-Wolbachia Cell-Based Screen
# Format: functional
# Design: scale not given: in the data most compounds retested in dose-response had high values
# condition info: 5 µM
The campaign covered roughly 48,000 compounds. About 13,000 (27%) showed an effect of 50% or more. Some of the results follow.
readout type: Percent Effect (%)
Return type: number; implicit unit %.

Some compounds with known Percent Effect results, for comparison:
Cc1nc(-c2ccc(CC(=O)N3CCN(C(=O)C(C)C)CC3)cc2)cs1 | -9.711
Cc1noc(C)c1CN1Cc2cnn(C)c2C(COCC2CC2)C1.O=C(O)C(F)(F)F.O=C(O)C(F)(F)F (stereo not given) | -11.34
CC1=N[C@@]2(CC[C@@H]3CN(C(=O)NCC(C)C)C[C@@H]32)C(=O)N1C | 7.686
Cc1ccc(-c2nc(CN(C)C3CCS(=O)(=O)C3)cs2)o1 (stereo not given) | -14.87
Cc1nccn1-c1cc(CNC(=O)C(C)(C)C)ccn1 | 9.207
Cc1ncsc1CN1Cc2cnn(C)c2C(COCC2CC2)C1.O=C(O)C(F)(F)F.O=C(O)C(F)(F)F (stereo not given) | -6.117

// returns Percent Effect for Cc1nn(C)cc1C(=O)N1CCCn2nc(CN3CC[C@H](F)C3)cc2C1 with Wolbachia pipientis; value = 10.52

// returns Percent Effect for O=C(c1cc(Cl)c2c(c1)OCO2)N1CCN(c2nccs2)CC1 with Wolbachia pipientis; value = -12.71

// returns Percent Effect for CC[C@H](CO)NC(=O)c1coc(COc2cccc(F)c2F)n1 with Wolbachia pipientis; value = -21.32

// returns Percent Effect for NC(c1ccc(F)cc1)c1cccs1 (stereo not given) with Wolbachia pipientis; value = 14.08

###

# Test system: Wolbachia pipientis
# assay procedure: Anti-Wolbachia Cell-Based Screen
# Type: functional
# Set-up: scale not given: in the data most compounds retested in dose-response had high values
# condition info: 5 µM
In all, about 48,000 compounds went through this assay and about 13,000 (27%) showed an effect of 50% or more. Some of the results follow.
readout type: Percent Effect (%)
Return type: number; implicit unit %.

CN1CCOCC12CCN(Cc1ccoc1)CC2.O=C(O)C(F)(F)F.O=C(O)C(F)(F)F | 109
Cc1cncc(C2CCCN(C(=O)c3cccn3C)C2)n1 (stereo not drawn) | 5.721
Cc1csc(Nc2cc(C3CN(C(C)C)C3)nc(C)n2)n1 | 95.99
COc1ccc(N2Cc3nc(=O)[nH]n3C2=O)cc1 | -10.45

Record CCn1cncc1CN1CCc2nc3sccc3c(=O)n2CC1 . Reported Percent Effect: 89.02

Record CS(=O)(=O)N1CCOCC2(CCN(Cc3ccoc3)CC2)C1.O=C(O)C(F)(F)F . Reported Percent Effect: 115.7

Record COc1ccc(Cl)cc1-n1nc(C2CCCC2)nc1Cn1cnnn1 . Reported Percent Effect: -18.77

###

# Tested on: Wolbachia pipientis
# assay procedure: Anti-Wolbachia Cell-Based Screen
# Type: functional
# Design: scale not given: in the data most compounds retested in dose-response had high values
# condition info: 5 µM
The campaign covered roughly 48,000 compounds. About 13,000 (27%) showed an effect of 50% or more. Some of the results follow.
readout type: Percent Effect (%)
Return type: number; implicit unit %.

Some compounds with known Percent Effect results, for comparison:
CCCNc1ncc(C2CC(=O)NCc3nc4ccccn4c32)cn1 (configuration not stated) | 19.88
CC(=O)c1c(F)cccc1N1CCC(NS(=O)(=O)c2ccccc2)CC1 | -17.75

// returns Percent Effect for CC(C)Cc1cc(NC(=O)c2n[nH]c3ccccc23)n(C)n1 with Wolbachia pipientis; value = 100

// returns Percent Effect for CN(CCC#N)C(=O)CSc1cc(F)ccc1F with Wolbachia pipientis; value = 10.19

// returns Percent Effect for COc1ccc(C(=O)NC2CC2)c(OC2CCN(C(C)CO)CC2)c1 (configuration not stated) with Wolbachia pipientis; value = -4.273

// returns Percent Effect for CC(C)Cc1cc(NC(=O)c2ccccn2)n(C)n1 with Wolbachia pipientis; value = 95.28

// returns Percent Effect for Cc1[nH]ccc1C(=O)N1CCCC(c2nccn2Cc2cscn2)C1 (configuration not stated) with Wolbachia pipientis; value = -11.42

// returns Percent Effect for O=C(c1ccc[nH]1)N1CCCC(c2cc(C(F)(F)F)[nH]n2)C1 (configuration not stated) with Wolbachia pipientis; value = -9.471

// returns Percent Effect for O=C(NCc1ccc(-n2cncn2)nc1)N(CC1CCOC1)C1CC1 (configuration not stated) with Wolbachia pipientis; value = 4.835

// returns Percent Effect for COc1cccc(C(=O)Nc2cc(CC(C)C)nn2C)c1 with Wolbachia pipientis; value = -2.904

// returns Percent Effect for OCc1cc2ccccc2nc1NC1CC=CC1 with Wolbachia pipientis; value = -7.436

// returns Percent Effect for CC(C)c1csc(C2CCCN(C(=O)c3ccc[nH]3)C2)n1 (configuration not stated) with Wolbachia pipientis; value = 7.741
